Procedure Text: oral pharmacokinetics (plasma, brain, CSF)
Type: in vivo, Sprague Dawley rats
Run Conditions: Sprague-Dawley, rat, plasma, po, 10 mg/kg, per os 10 mg/kg, normal saline (* in 5% NMP, 5% Solutol HS, 90% normal saline), read-out: Tmax
Measured Endpoint: Tmax (min)
Number in min, nothing else.

// lookup Tmax for NC(=O)C(CO)N1CC2(CCCCC2)C1=O (single isomer, unassigned)
15

What do we get for CC1CCC2(CC1)CN([C@H](C(N)=O)[C@@H](C)O)C2=O (mixture of isomers) ?
15

Next entry: CC1CCC2(CC1)CNC2=O (racemic) [Compound AD, 7-methyl-2-azaspiro[3.5]nonan-1-one]
25.2

Query CC1CCC2(CC1)CN(CC(N)=O)C2=O (stereo not shown) next
15

* * *

For each of the molecules below, state its bioavailability.
Procedure Text: oral pharmacokinetics (plasma, brain, CSF)
Assay type: in vivo, Sprague Dawley rats
Run Conditions: Sprague-Dawley, plasma, po; rat, per os 10 mg/kg
Respond with the bare value in %.

Give its bioavailability value. Item: O=C1NCC12CCC(NCc1ccccc1)CC2 (stereo not shown)
100

Also, CCN(Cc1ccccc1)C1CCC2(CC1)CNC2=O (stereo not shown) please.
87

Now the molecule CN(Cc1ccccc1)C1CCC2(CC1)CNC2=O (stereo not shown)
48

Note, next up: COc1ccc(CN2CC3(CCC(O)CC3)C2=O)cc1 (stereo not shown)
41

* * *

Procedure Text: oral pharmacokinetics (plasma, brain, CSF)
Assay type: in vivo, Sprague Dawley rats
Run Conditions: Sprague-Dawley, plasma, po; rat, per os 10 mg/kg, normal saline (* in 5% NMP, 5% Solutol HS, 90% normal saline); read-out: Tmax
Consider the following compounds; for each one, report its Tmax.
Provide only the numeric value, understood in min.

If you can, please state the reported Tmax value of CCN(Cc1ccccc1)C1CCC2(CC1)CNC2=O (stereo not shown) .
30

Entry to check: O=C1NCC12CCC(NCc1ccccc1)CC2 (stereo not shown)
120

What about COc1ccc(CN2CC3(CCC(O)CC3)C2=O)cc1 (stereo not shown) ?
15

# repeat for CN(Cc1ccccc1)C1CCC2(CC1)CNC2=O (stereo not shown)
30

* * *

Procedure Text: oral pharmacokinetics (plasma, brain, CSF)
Format: in vivo, Sprague Dawley rats
Run Conditions: rat, per os 10 mg/kg, brain
Measured Endpoint: Brain Cmax
Please report the result as a number followed by the unit.

Which Brain Cmax is listed for CN(Cc1ccccc1)C1CCC2(CC1)CNC2=O (centres unmarked) ?
1833.34 ng/mL

Also O=C1NCC12CCC(NCc1ccccc1)CC2 (centres unmarked) , if possible.
2799.98 ng/mL

What would you report for CC1CCC2(CC1)CN([C@H](C(N)=O)[C@@H](C)O)C2=O (mixture of isomers) ?
1501.76 ng/mL

Another compound: CC1CCC2(CC1)CNC2=O (racemic) [Compound AD, 7-methyl-2-azaspiro[3.5]nonan-1-one]
1832.2 ng/mL

And for C[C@@H](O)[C@H](NC1CCC2(CC1)CNC2=O)C(N)=O (single isomer, unassigned) [AP] ?
0 ng/mL

Request: CC1CCC2(CC1)CN(CC(N)=O)C2=O (centres unmarked)
2321 ng/mL

// query: O=C1NCC12CCC(OCc1ccccc1)CC2 (single isomer, unassigned) [AI, 7-(benzyloxy)-2-azaspiro[3.5]nonan-1-one]
1087.9 ng/mL

Same for O=C1NCC12CCC(O)CC2 (centres unmarked) [AL, 7-hydroxy-2-azaspiro[3.5]nonan-1-one]
3672 ng/mL

// query: NC(=O)C(CO)N1CC2(CCCCC2)C1=O (single isomer, unassigned)
120 ng/mL

Query CC1CCC2(CC1)CN(C(CO)C(=O)O)C2=O (single isomer, unassigned) next
61 ng/mL

Again, but for C[C@@H](O)[C@H](NC1CCC2(CC1)CNC2=O)C(N)=O (single isomer, unassigned) [AQ]
29.91 ng/mL

Ok, now CC1CCC2(CC1)CN(C(CCC(N)=O)C(N)=O)C2=O (single isomer, unassigned)
61.2 ng/mL

Also check CCN(Cc1ccccc1)C1CCC2(CC1)CNC2=O (centres unmarked)
3632.82 ng/mL

Would you mind doing COc1ccc(CN2CC3(CCC(O)CC3)C2=O)cc1 (centres unmarked) as well?
307.49 ng/mL

* * *

System: Sprague Dawley rats
Procedure Text: Porsolt forced swim test
Assay type: in vivo, rat
Run Conditions: 0.1 mg/kg, 1 h post-dose
# if measured % reduction in float time < 70%: label 1  # else: label 0

Consider O=C1NCC12CCCCC2 [Compound AB, 2-azaspiro[3.5]nonan-1-one] . Does its % reduction in float time lie strictly below 70%?
label 0

Do the same for NC(=O)C(CO)N1CC2(CCCCC2)C1=O (single isomer, unassigned) [AT] please
label 1

Same for C[C@@H](O)[C@@H](C(N)=O)N1CC2(CCCCC2)C1=O [Compound AA]
label 1

Queued: NC(=O)C(CO)N1CC2(CCCCC2)C1=O (single isomer, unassigned) [AS]
label 0

Input CC1CCC2(CC1)CN(C(CCC(N)=O)C(N)=O)C2=O (single isomer, unassigned) [BF]
label 0

* * *

Experimental System: NMDAR2A (Homo sapiens, UniProt Q12879)
Construct: expressed in transfected cells; host or cells: HEK cells (membrane extract)
Sequence (Q12879 23-1464, species assumed, other chains not shown): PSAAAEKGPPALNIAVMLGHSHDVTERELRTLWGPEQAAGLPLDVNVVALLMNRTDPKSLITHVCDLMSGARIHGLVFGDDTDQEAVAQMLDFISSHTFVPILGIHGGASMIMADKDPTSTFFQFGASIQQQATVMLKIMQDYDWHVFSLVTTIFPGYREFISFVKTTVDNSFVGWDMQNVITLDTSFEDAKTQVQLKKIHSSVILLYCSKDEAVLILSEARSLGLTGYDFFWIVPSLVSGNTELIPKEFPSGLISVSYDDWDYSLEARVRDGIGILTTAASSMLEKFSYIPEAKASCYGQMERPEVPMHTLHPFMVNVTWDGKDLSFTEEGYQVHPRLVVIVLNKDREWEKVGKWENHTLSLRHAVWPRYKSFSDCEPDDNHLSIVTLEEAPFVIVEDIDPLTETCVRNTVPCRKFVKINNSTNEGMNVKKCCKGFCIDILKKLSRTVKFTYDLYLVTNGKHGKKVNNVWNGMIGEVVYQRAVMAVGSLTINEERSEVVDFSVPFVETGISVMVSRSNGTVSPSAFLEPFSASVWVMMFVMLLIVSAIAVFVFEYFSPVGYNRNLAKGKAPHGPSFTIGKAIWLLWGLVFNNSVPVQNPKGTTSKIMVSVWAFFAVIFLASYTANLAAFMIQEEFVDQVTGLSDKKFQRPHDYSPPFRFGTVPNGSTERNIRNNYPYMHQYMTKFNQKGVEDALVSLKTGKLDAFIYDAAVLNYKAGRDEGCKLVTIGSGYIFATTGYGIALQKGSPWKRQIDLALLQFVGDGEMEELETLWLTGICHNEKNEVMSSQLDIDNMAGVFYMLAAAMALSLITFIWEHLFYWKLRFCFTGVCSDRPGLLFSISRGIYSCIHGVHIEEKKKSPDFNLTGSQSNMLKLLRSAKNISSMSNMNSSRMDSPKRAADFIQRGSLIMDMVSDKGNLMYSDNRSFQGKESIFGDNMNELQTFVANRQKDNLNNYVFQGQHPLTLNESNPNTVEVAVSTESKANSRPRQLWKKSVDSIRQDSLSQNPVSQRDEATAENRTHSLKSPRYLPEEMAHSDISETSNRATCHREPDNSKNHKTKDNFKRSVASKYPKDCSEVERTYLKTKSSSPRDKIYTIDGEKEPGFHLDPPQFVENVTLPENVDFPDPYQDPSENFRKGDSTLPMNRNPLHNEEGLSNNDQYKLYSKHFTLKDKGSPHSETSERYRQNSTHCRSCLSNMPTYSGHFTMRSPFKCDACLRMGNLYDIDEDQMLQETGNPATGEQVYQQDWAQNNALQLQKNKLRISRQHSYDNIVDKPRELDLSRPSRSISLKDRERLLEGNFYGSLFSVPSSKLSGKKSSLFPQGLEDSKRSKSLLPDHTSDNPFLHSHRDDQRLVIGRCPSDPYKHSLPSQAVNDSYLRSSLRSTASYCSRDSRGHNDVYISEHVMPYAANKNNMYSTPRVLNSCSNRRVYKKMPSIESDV
Procedure Text: [3H]MK-801 binding in NMDAR expressing HEK cell membranes (facilitation of NMDAR activation)
Assay type: biochemical
Run Conditions: 50 μM glutamate
Measured Endpoint: A: % maximal [3H]MK-801 binding relative to 1 mM glycine

1. CC1CCC2(CC1)CN(C(CO)C(=O)O)C2=O (single isomer, unassigned) [EN] | + (<100%=+)
2. COc1ccc(CN2CC3(CCC(OCc4ccccc4)CC3)C2=O)cc1 (single isomer, unassigned) [AF] | − (−=0)
3. NC(=O)C(CO)N1CC2(CCCCC2)C1=O (single isomer, unassigned) [AT] | + (<100%=+)
4. O=C1NCC12CCC(O)CC2 (stereo not shown) [AL, 7-hydroxy-2-azaspiro[3.5]nonan-1-one] | − (−=0)

* * *

What Vd was measured for each of the following?
Procedure Text: IV pharmacokinetics
Format: in vivo, Sprague Dawley rats
Run Conditions: Sprague-Dawley, rat, in vivo, iv, 2 mg/kg, normal saline (* in 5% NMP, 5% Solutol HS, 90% normal saline), read-out: Vss
Give just the numeric value; L/kg need not be written.

Entry NC(=O)C(CO)N1CC2(CCCCC2)C1=O (single isomer, unassigned) has what Vd?
1.14

What about O=C1NCC12CCC(OCc1ccccc1)CC2 (single isomer, unassigned) [AI, 7-(benzyloxy)-2-azaspiro[3.5]nonan-1-one] ?
0.75

Now try CC1CCC2(CC1)CN([C@H](C(N)=O)[C@@H](C)O)C2=O (mixture of isomers) .
0.59

Note, next up: CC1CCC2(CC1)CNC2=O (racemic) [Compound AD, 7-methyl-2-azaspiro[3.5]nonan-1-one]
0.97

O=C1NCC12CCCCC2 [Compound AB, 2-azaspiro[3.5]nonan-1-one] , same question.
1.13

Same question, O=C1NCC12CCC(O)CC2 (stereo not drawn) [AL, 7-hydroxy-2-azaspiro[3.5]nonan-1-one] this time
0.83

* * *

Hi there, I'd appreciate the recorded AUC(0-t) for every entry that follows.
Procedure Text: IV pharmacokinetics
Assay type: in vivo, Sprague Dawley rats
Run Conditions: Sprague-Dawley, in vivo; rat, intravenous 2 mg/kg, normal saline (* in 5% NMP, 5% Solutol HS, 90% normal saline)
Supply the numeric figure in ng·h/mL, leaving out any unit text.

What value of AUC(0-t) has been recorded for this entry: CN(Cc1ccccc1)C1CCC2(CC1)CNC2=O (stereo not shown)
1210

Next up: COc1ccc(CN2CC3(CCC(O)CC3)C2=O)cc1 (stereo not shown)
650

Now give it for CCN(Cc1ccccc1)C1CCC2(CC1)CNC2=O (stereo not shown) too.
782

And the next one, O=C1NCC12CCC(NCc1ccccc1)CC2 (stereo not shown) ?
659

* * *

Experimental System: NMDAR2B (Homo sapiens)
Construct: expressed in transfected cells; host or cells: HEK cells (membrane extract)
Sequence (Q13224 27-1484, species assumed, other chains not shown): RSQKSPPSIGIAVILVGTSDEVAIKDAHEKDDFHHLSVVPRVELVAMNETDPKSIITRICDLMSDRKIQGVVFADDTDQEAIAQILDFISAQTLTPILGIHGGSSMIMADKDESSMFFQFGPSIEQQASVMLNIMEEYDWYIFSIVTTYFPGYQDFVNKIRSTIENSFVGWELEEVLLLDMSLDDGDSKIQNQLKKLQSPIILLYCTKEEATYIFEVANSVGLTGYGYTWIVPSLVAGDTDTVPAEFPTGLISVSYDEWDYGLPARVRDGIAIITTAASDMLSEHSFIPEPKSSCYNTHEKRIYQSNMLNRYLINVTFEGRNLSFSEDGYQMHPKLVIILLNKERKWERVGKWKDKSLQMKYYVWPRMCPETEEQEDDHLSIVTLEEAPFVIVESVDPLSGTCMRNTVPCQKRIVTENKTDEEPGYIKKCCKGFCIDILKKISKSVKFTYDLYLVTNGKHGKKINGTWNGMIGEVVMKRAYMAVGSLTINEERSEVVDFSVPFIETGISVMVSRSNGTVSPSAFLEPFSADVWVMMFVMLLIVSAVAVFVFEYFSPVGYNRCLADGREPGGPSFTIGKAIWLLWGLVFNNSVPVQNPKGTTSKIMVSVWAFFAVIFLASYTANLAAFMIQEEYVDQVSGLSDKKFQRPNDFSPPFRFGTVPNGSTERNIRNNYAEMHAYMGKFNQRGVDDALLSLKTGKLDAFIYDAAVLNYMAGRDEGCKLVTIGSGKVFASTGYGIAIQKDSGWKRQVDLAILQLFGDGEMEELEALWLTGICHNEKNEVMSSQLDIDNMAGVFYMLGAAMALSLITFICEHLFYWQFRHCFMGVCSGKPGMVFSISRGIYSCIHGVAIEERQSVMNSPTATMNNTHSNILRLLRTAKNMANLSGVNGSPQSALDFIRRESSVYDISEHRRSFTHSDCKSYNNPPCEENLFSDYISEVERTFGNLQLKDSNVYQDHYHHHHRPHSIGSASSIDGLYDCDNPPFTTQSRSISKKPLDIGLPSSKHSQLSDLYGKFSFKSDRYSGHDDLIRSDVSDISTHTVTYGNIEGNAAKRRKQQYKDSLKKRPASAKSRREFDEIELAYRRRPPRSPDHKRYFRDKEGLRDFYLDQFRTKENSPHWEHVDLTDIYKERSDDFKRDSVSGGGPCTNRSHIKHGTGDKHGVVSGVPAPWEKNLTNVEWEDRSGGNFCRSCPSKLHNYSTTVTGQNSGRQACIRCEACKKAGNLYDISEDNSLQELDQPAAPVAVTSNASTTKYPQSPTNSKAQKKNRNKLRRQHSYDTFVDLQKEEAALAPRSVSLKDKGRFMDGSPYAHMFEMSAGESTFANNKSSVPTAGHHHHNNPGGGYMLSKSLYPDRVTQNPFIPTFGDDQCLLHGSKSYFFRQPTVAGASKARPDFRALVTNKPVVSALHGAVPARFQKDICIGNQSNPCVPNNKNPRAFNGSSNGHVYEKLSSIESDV
Procedure Text: [3H]MK-801 binding in NMDAR expressing HEK cell membranes (facilitation of NMDAR activation)
Format: biochemical
Run Conditions: 50 μM glutamate
Measured Endpoint: A: % maximal [3H]MK-801 binding relative to 1 mM glycine

Illustrative cases are given below, each with its answer.
1) COc1ccc(CN2CC3(CCC(OCc4ccccc4)CC3)C2=O)cc1 (single isomer, unassigned) [AE] | − (−=0)
2) NC(=O)C(CO)N1CC2(CCCCC2)C1=O (single isomer, unassigned) | + (<100%=+)
3) CC1CCC2(CC1)CN(C(CCC(N)=O)C(N)=O)C2=O (single isomer, unassigned) | + (<100%=+)
4) O=C1N(OCc2ccccc2)CC12CCC(O)CC2 (stereo not shown) | − (−=0)
5) CCN(Cc1ccccc1)C1CCC2(CC1)CNC2=O (stereo not shown) [FB] | + (<100%=+)
6) CCN(Cc1ccccc1)C1CCC2(CC1)CNC2=O (stereo not shown) [FA] | − (−=0)
7) COc1ccc(CN2CC3(CCC(OCc4ccccc4)CC3)C2=O)cc1 (single isomer, unassigned) [AF] | + (<100%=+)
8) O=C1NCC12CCC(O)CC2 (stereo not shown) [AL, 7-hydroxy-2-azaspiro[3.5]nonan-1-one] | + (<100%=+)

Looking for the measured A: % maximal [3H]MK-801 binding relative to 1 mM glycine of C[C@@H](O)[C@H](NC1CCC2(CC1)CNC2=O)C(N)=O (single isomer, unassigned) , can you help?
+ (<100%=+)

Check CC1CCC2(CC1)CN(C(CO)C(=O)O)C2=O (single isomer, unassigned) [EN] too.
+ (<100%=+)

// next record CN(Cc1ccccc1)C1CCC2(CC1)CNC2=O (stereo not shown)
+ (<100%=+)

Next record, please: O=C1NCC12CCC(O)CC2 (stereo not shown) [AK, 7-hydroxy-2-azaspiro[3.5]nonan-1-one]
− (−=0)

What about CC1CCC2(CC1)CN(C(CO)C(=O)O)C2=O (single isomer, unassigned) [EM] ?
− (−=0)
